Tested on: KYSE-510
Test: Antiproliferative activity against human KYSE-510 cells assessed as reduction in cell viability incubated for 72 hrs by MTT assay
Assay type: functional, cell-based
Settings: KYSE-510, 72 h
measurement name: IC50 (nM)
Respond with the bare value in nM.

Report measured IC50; entry is `CC(=O)OC[C@]12Oc3c(-c4ccc(O)c5c4O[C@@]4(COC(C)=O)C(=C(O)C[C@@H](C)[C@H]4OC(C)=O)C5=O)ccc(O)c3C(=O)C1=C(O)C[C@@H](C)[C@H]2OC(C)=O`
760
